// data source = PubChem BioAssay (NCI)

System: SW-620 colon
assayProcedure: NCI tumour cell line growth inhibition, 48 h; in the data active means GI50 below about 0.43 µM; inactive means the rest
Hello, when you answer, please use one of the following outcomes: YES = active, NO = inactive

What classification did `COc1cccc(-c2nn(-c3ccccc3)cc2-c2ccnc(NCCNC(=O)Nc3cccc(C(F)(F)F)c3)c2)c1` end up with in this test?
NO

What classification did `CCN(Cc1ccc(F)cc1)c1ccc(CO)c(C)c1` end up with in this test?
NO

What classification did `CC(C)N1CCN(Cc2ccc3c(NNC(=O)c4ccccc4)nc4cc(F)ccc4n23)CC1` end up with in this test?
NO

What classification did COc1cccc(-c2ccc3c(c2)C2CCN(Cc4ccccc4)C3C2)c1 (stereo not given) end up with in this test?
NO

What classification did `Cc1cc2cc3ccc(N(C)C)cc3nc2cc1N` end up with in this test?
YES

What classification did CCOc1cc(Br)c(C(C)NC(=O)c2cccc(OC)c2)cc1OCC (stereo not given) end up with in this test?
NO

What classification did `CC(=O)c1c(CN(C)c2ccccc2)n([O-])c2ccccc2[n+]1=O` end up with in this test?
NO

What classification did COc1ccc(/C=c2\sc3n(c2=O)C2C(NN=3)N(C)C(=O)N2C)cc1 (stereo not given) end up with in this test?
NO

What classification did `N[C@@H]1C(=O)N2C(C(=O)OC(c3ccccc3)c3ccccc3)=C(CCl)CS[C@H]12` end up with in this test?
NO

What classification did `COc1ccc(-c2ccc(-c3ccc(C(=N)N)nc3)s2)cc1Cl` end up with in this test?
NO
